- Tested on: HCT-8 cells
- Test: In vitro cytotoxicity MTS assay on host cells
- Format: cell-based, human
- Study Conditions: HCT-8 cells, 41 h, MTS
Property Name: TC50

1) COc1ccc(C(=O)c2ccc(O)cc2)c(O)c1O [2,3,4′-Trihydroxy-4-methoxybenzophenone]: >100 µM
2) CC[C@H](C)C(=O)O[C@H]1C[C@@H](C)C=C2C=C[C@H](C)[C@H](CC[C@@H]3C[C@@H](O)CC(=O)O3)[C@H]21 [Lovastatin, reference compound]: >100 µM
3) COc1ccc2c(c1)OCC(Cc1ccc(OC)c(OC(C)=O)c1)C2=O (stereo not drawn): >100 µM
4) CC(C)[C@@H]1NC(=O)[C@H](C)OC(=O)[C@@H](C(C)C)NC(=O)[C@@H](C(C)C)OC(=O)[C@H](C(C)C)NC(=O)[C@H](C)OC(=O)[C@@H](C(C)C)NC(=O)[C@@H](C(C)C)OC(=O)[C@H](C(C)C)NC(=O)[C@H](C)OC(=O)[C@@H](C(C)C)NC(=O)[C@@H](C(C)C)OC1=O [Valinomycin, reference compound]: >50 µM
5) COC(=O)C[C@H]1C(C)(C)[C@@H](O)[C@@H]2CC3=C4C=C(OC)O[C@@H](c5ccoc5)[C@]4(C)CCC3[C@@]1(C)C2=O (stereo partly drawn): >100 µM

Please examine the following record next.
Notebook: Cc1coc2c1C(=O)C(=O)c1c-2ccc2c1CCCC2(C)C , TC50 read as >100 µM
